measured_target: baboon FXI (Papio anubis (baboon))
test_summary: ELISA
For each record, write down the corresponding pEC50.
Give bare numbers, as −log10 of the molar value.

binder	value_measured
TPP-3583 (antibody, V domains shown) VH: EVTLRESGPALVKPTQTLTLTCTFSGFSLSTSGMGVGWIRQPPGKALEWLAHIDWDDDKYYSPSLKSRLTISKDTSKNQVVLTMTNMDPVDTATYYCARIRSSVYAHYYGMDYWGQGTTVTVSS VL: DIVMTQSPDSLAVSLGERATISCKASQSVLYSGDNYLNWYQQKPGQPPKLLIYAASTLESGIPDRFSGSGSGTDFTLTISSLQAEDVAVYYCQQYNGDPWTFGGGTKVEIKR	9.89
TPP-3577 (antibody, V domains shown) VH: EVTLRESGPALVKPTQTLTLTCTFSGFSLSTSGMCVGWIRQPPGKALEWLAHIDWDDDKYYSTSLKSRLTISKDTSKNQVVLTMTNMDPVDTATYYCARIRSSVYAHYYGMDVWGQGTTVTVSS VL: DIVMTQSPDSLAVSLGERATISCKSSQSVLYSGDNYLNWYQQKPGQPPKLLIYAASTLESGIPDRFSGSGSGTDFTLTISSLQAEDVAVYYCQQYNGDPWTFGGGTKVEIKR	9.80

Query: Find the recorded pEC50 belonging to TPP-3290 (antibody, V domains shown) VH: EVTLRESGPALVKPTQTLTLTCTFSGFSLSTSGMGVSWIRQPPGKALEWLAHIDWDDDKYYSTSLKSRLTISKDTSKNQVVLTMTNMDPVDTATYYCARIRSSVYAHYYGMDYWGQGTTVTVSS VL: DIVMTQSPDSLAVSLGERATISCKASQSVLYSGDNYLNWYQQKPGQPPKLLIYAASTLESGIPDRFSGSGSGTDFTLTISSLQAEDVAVYYCQQYNGTPWTFGGGTKVEIKR and report it.
Response: 9.85
